Ref: patent US20120178915A1

Please provide measured MIC for the entries that follow.
tested on: Enterococcus faecalis 19433; assay: microbe, parasite or virus in culture; format: cell-based; conditions: 37° C., 24 h, read-out: Minimum Inhibitory Concentration, MIC

Query :: Fill blank: measured MIC of the molecule CCc1nn2c(=O)cc(-c3ccc(C#N)cc3)[nH]c2c1-c1ccc(Cl)cc1Cl is ____.
Result :: 2.01 µM

Query :: Using the record for Cc1c(-c2ccc(C#N)cc2)[nH]c2c(-c3ccc(Cl)cc3Cl)c(-c3ccccc3)nn2c1=O , report its MIC.
Result :: 0.23 µM

Query :: Please report the recorded MIC for O=C1C(c2ccccc2)C(O)=Nc2cc(-c3ccc(C(F)(F)F)cc3)nn21 (centres unmarked) .
Result :: 18.2 µM

Query :: I have this molecule here, Cc1nn2c(=O)cc(-c3ccc(C#N)cc3)[nH]c2c1-c1ccc(C(F)(F)F)cc1 , and I need its recorded MIC.
Result :: 0.42 µM

Query :: Quick check: MIC of O=c1[nH]c(-c2ccc(C(F)(F)F)cc2)nc2cc(Cl)ccc12 ?
Result :: 13.5 µM

Query :: I would be grateful if you could share the reported MIC for Cc1nn2c(=O)cc(-c3ccc(C#N)cc3)[nH]c2c1-c1ccc(Cl)cc1Cl .
Result :: 0.02 µM

Query :: Would you mind telling me what MIC value was observed for Cc1nn2c(=O)cc(-c3ccc(C(F)(F)F)nc3)[nH]c2c1-c1ccc(Cl)cc1Cl ?
Result :: 11.5 µM

Query :: Looking for the measured MIC of Cc1nn2c(=O)c(C)c(-c3ccc(C#N)cc3)[nH]c2c1-c1ccc(C(F)(F)F)cc1 , can you help?
Result :: 5 µM

====

test system: Streptococcus 10342
assay_readout: MIC
Write your answer as a measured quantity: the number, then the unit.

Query :: Param item = O=C1C(c2ccccc2)C(O)=Nc2cc(-c3ccc(C(F)(F)F)cc3)nn21 (centres unmarked) ; retrieve measured MIC.
Result :: 15.5 µM

Query :: Dear colleague, I am looking for the recorded MIC of the following molecule: Cc1c(-c2ccc(C#N)cc2)[nH]c2c(-c3ccc(Cl)cc3Cl)c(-c3ccccc3)nn2c1=O
Result :: 1.23 µM

Query :: # get_value(readout='MIC', item= CCc1nn2c(=O)c(C)c(-c3ccc(C(F)(F)F)cc3)[nH]c2c1-c1ccc(Cl)cc1Cl )
Result :: 123 µM

Query :: I'd like to know its MIC. The molecule in question is Cc1nn2c(=O)cc(-c3ccc(C#N)cc3)[nH]c2c1-c1ccc(Cl)cc1Cl
Result :: 1.15 µM

Query :: Reported MIC, molecule CCc1nn2c(=O)cc(-c3ccc(C#N)cc3)[nH]c2c1-c1ccc(Cl)cc1Cl : ____
Result :: 1.33 µM

Query :: Given the molecule O=c1[nH]c(-c2ccc(C(F)(F)F)cc2)nc2cc(Cl)ccc12 , what is its reported MIC?
Result :: 170 µM

Query :: Dear colleague, I am looking for the recorded MIC of the following molecule: Cc1nn2c(=O)cc(-c3ccc(C#N)cc3)[nH]c2c1-c1ccc(C(F)(F)F)cc1
Result :: 1.33 µM

Query :: Report MIC for Cc1nn2c(=O)c(C)c(-c3ccc(C#N)cc3)[nH]c2c1-c1ccc(C(F)(F)F)cc1 please.
Result :: 0.3 µM

====

system: Enterococcus faecalis 583 (VRE); experiment: microbe, parasite or virus in culture; assay type: cell-based; conditions: 24 h, read-out: Minimum Inhibitory Concentration, MIC
assay_readout: MIC (µM)
Unit µM implied. Number only.

Query :: What is its MIC for Enterococcus faecalis 583 (VRE)? Entry: Cc1nn2c(=O)cc(-c3ccc(C(F)(F)F)cc3)[nH]c2c1-c1ccc(Cl)cc1Cl
Result :: 0.3

Query :: What value of MIC on Enterococcus faecalis 583 (VRE) does Cc1nn2c(=O)cc(-c3ccc(C#N)cc3)[nH]c2c1-c1ccc(Cl)cc1Cl have?
Result :: 0.99

Query :: Request: MIC, test system Enterococcus faecalis 583 (VRE), entry Cc1nn2c(=O)cc(-c3ccc(C#N)cc3)[nH]c2c1-c1ccc(C(F)(F)F)cc1
Result :: 0.63

Query :: Under Enterococcus faecalis 583 (VRE): MIC value of Cc1nn2c(=O)c(C)c(-c3ccc(C#N)cc3)[nH]c2c1-c1ccc(C(F)(F)F)cc1 ?
Result :: 2.5

====

system: Bacillus cereus 2; experiment: microbe, parasite or virus in culture; assay type: cell-based; settings: 37° C., 24 h, read-out: Minimum Inhibitory Concentration, MIC
Lab note: anything with MIC below 1 µM is marked Condition met; values at 1 µM or higher are marked Condition not met.

Query :: Answer whether the compound O=C1C(c2ccccc2)C(O)=Nc2cc(-c3ccc(C(F)(F)F)cc3)nn21 (stereo not drawn) has MIC strictly less than 1 µM
Result :: Condition met

Query :: Please state whether MIC is below 1 µM for Nc1nc(-c2ccccc2)nc2c1cnn2-c1ccccc1
Result :: Condition not met

Query :: Input Cc1nn2c(=O)cc(-c3ccc(C#N)cc3)[nH]c2c1-c1ccc(C(F)(F)F)cc1 ; condition: MIC strictly below 1 µM. Does it hold?
Result :: Condition not met

Query :: Quick check: MIC of O=c1[nH]c(-c2ccc(C(F)(F)F)cc2)nc2cc(Cl)ccc12 under 1 µM?
Result :: Condition not met

Query :: Lab log: compare recorded MIC with 1 µM; is it strictly lower for Cc1nn2c(=O)cc(-c3ccc(C#N)cc3)[nH]c2c1-c1ccc(Cl)cc1Cl ?
Result :: Condition met

Query :: Hello, I'm reviewing records and need to know if MIC of CCc1nn2c(=O)cc(-c3ccc(C#N)cc3)[nH]c2c1-c1ccc(Cl)cc1Cl is below 1 µM. Could you check?
Result :: Condition not met

Query :: For this compound, is MIC lower than 1 µM? Cc1c(-c2ccc(C(F)(F)F)cc2)[nH]c2c(-c3ccc(Cl)cc3Cl)c(C3CC3)nn2c1=O
Result :: Condition met

Query :: Hi there! Is MIC for Cc1nn2c(=O)cc(-c3ccc(C(F)(F)F)cc3)[nH]c2c1-c1ccc(Cl)cc1Cl below 1 µM, do you know?
Result :: Condition met

Query :: Please check: MIC for Cc1nn2c(=O)c(C)c(-c3ccc(C#N)cc3)[nH]c2c1-c1ccc(C(F)(F)F)cc1 , strictly under 1 µM or not?
Result :: Condition not met

Query :: Field: below-cutoff. Rule: recorded MIC strictly less than 1 µM. Subject: Cc1c(-c2ccc(C#N)cc2)[nH]c2c(-c3ccc(Cl)cc3Cl)c(-c3ccccc3)nn2c1=O
Result :: Condition met

Query :: Take the compound CCc1nn2c(=O)c(C)c(-c3ccc(C(F)(F)F)cc3)[nH]c2c1-c1ccc(Cl)cc1Cl and say whether its MIC is less than 1 µM.
Result :: Condition not met

Query :: Given the entry Cc1nn2c(=O)cc(-c3ccc(C(F)(F)F)nc3)[nH]c2c1-c1ccc(Cl)cc1Cl , would its reported MIC be below 1 µM?
Result :: Condition met

====

system: Streptococcus agalactiae B; assay: microbe, parasite or virus in culture; type: cell-based; details: 37° C., 24 h, read-out: Minimum Inhibitory Concentration, MIC
assay_readout: MIC (µM)
# number only, unit µM dropped from output

Query :: Find the recorded MIC belonging to CCc1nn2c(=O)c(C)c(-c3ccc(C(F)(F)F)cc3)[nH]c2c1-c1ccc(Cl)cc1Cl [Compound 23] and report it.
Result :: 200

Query :: I would be grateful if you could share the reported MIC for Cc1nn2c(=O)cc(-c3ccc(C#N)cc3)[nH]c2c1-c1ccc(C(F)(F)F)cc1 [Compound 3] .
Result :: 0.16

Query :: Look at this molecule and give its reported MIC. Cc1nn2c(=O)cc(-c3ccc(C(F)(F)F)cc3)[nH]c2c1-c1ccc(Cl)cc1Cl [Compound 7]
Result :: 0.22

Query :: Recorded MIC for CCc1nn2c(=O)cc(-c3ccc(C#N)cc3)[nH]c2c1-c1ccc(Cl)cc1Cl [Compound 5] , please?
Result :: 0.16

====

test system: Clostridium tetani; assay: microbe, parasite or virus in culture; format: cell-based; conditions: 24 h, read-out: Minimum Inhibitory Concentration, MIC, Microorganism 29, Clostridium tetani, 37° C.
assay_readout: MIC (µM)
Unit µM implied. Number only.

Query :: Which MIC reading was recorded for the compound Cc1nn2c(=O)cc(-c3ccc(C(F)(F)F)cc3)[nH]c2c1-c1ccc(Cl)cc1Cl ?
Result :: 50.3

Query :: Need MIC of Nc1nc(-c2ccccc2)nc2c1cnn2-c1ccccc1 , thanks.
Result :: 160

Query :: What value of MIC has been recorded for this entry: Cc1c(-c2ccc(C#N)cc2)[nH]c2c(-c3ccc(Cl)cc3Cl)c(-c3ccccc3)nn2c1=O
Result :: 80.2

Query :: Look up MIC for this compound: CCc1nn2c(=O)c(C)c(-c3ccc(C(F)(F)F)cc3)[nH]c2c1-c1ccc(Cl)cc1Cl
Result :: 80.2

Query :: Requested field: MIC. Item: Cc1nn2c(=O)cc(-c3ccc(C(F)(F)F)nc3)[nH]c2c1-c1ccc(Cl)cc1Cl
Result :: 70.3

Query :: Return reported MIC; argument: Cc1nn2c(=O)cc(-c3ccc(C#N)cc3)[nH]c2c1-c1ccc(C(F)(F)F)cc1
Result :: 50.3

Query :: What value of measured MIC is listed for Cc1nn2c(=O)c(C)c(-c3ccc(C#N)cc3)[nH]c2c1-c1ccc(C(F)(F)F)cc1 ?
Result :: 60.3

Query :: Recorded MIC of O=C1C(c2ccccc2)C(O)=Nc2cc(-c3ccc(C(F)(F)F)cc3)nn21 (centres unmarked) , please.
Result :: 30.2
